Item-by-item account of IC50
- Tgt: LK35.2-hPD-L1 cells / PE-labeled PD-1-Ig (Homo sapiens, UniProt Q9NZQ7)
- Construct: expressed in transfected cells; host or cells: LK35.2 mouse B cell line
- Sequence (Q9NZQ7 19-290): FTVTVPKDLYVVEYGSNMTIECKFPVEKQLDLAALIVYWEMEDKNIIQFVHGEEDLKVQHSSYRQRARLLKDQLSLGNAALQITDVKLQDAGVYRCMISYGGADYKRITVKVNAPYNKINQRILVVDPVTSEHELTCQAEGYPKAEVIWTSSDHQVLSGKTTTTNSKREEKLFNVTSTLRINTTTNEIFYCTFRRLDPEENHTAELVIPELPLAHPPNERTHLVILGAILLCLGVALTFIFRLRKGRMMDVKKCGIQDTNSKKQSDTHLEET
- Assay explanation: LK35.2-hPD-L1 cell binding high-content screening assay
- Format: cell-based
- Assay context: cell binding assay, cell line not given; cluster symbol; read-out: CBA IC50 cluster
Positions of bridges follow the written chain, without caps; N, C: chain ends. Non-standard residues stand in square brackets, D forms with d. Residues, ends and D or L forms follow the SMILES beside them. ξ: configuration not given here. Phe(3-OMe) = COc1cccc(C[C@H](N)C(=O)O)c1; 1Nal = N[C@@H](Cc1cccc2ccccc12)C(=O)O; Bta = N[C@@H](Cc1csc2ccccc12)C(=O)O; Hyp = O=C(O)[C@@H]1C[C@@H](O)CN1; NMeF = CN[C@@H](Cc1ccccc1)C(=O)O; 4Pal = N[C@@H](Cc1ccncc1)C(=O)O; dNMeE = CN[C@H](CCC(=O)O)C(=O)O; NMeNle = CCCC[C@H](NC)C(=O)O; NMeM = CN[C@@H](CCSC)C(=O)O; dPip = O=C(O)[C@H]1CCCCN1; NMeA = CN[C@@H](C)C(=O)O; Orn = NCCC[C@H](N)C(=O)O; Dab = NCC[C@H](N)C(=O)O; Dap = NC[C@H](N)C(=O)O; ξC = NC(CS)C(=O)O; Sar = CNCC(=O)O

Example results:
CCCC[C@H]1C(=O)N(C)[C@@H](CCCC)C(=O)N[C@@H](CCN)C(=O)N[C@H](C(=O)NCC(N)=O)CSCC(=O)N[C@@H](Cc2ccc(O)cc2)C(=O)N(C)[C@@H](C)C(=O)N[C@@H](CCN)C(=O)N2CCC[C@H]2C(=O)N[C@@H](CN)C(=O)N[C@@H](CC(C)C)C(=O)N2C[C@H](O)C[C@H]2C(=O)N[C@@H](Cc2c[nH]c3ccccc23)C(=O)N[C@@H](CCN)C(=O)N[C@@H](Cc2c[nH]c3ccccc23)C(=O)N1C [Example 5140] ({CH2CO}-Y[NMeA][Dab]P[Dap]L[Hyp]W[Dab]W[NMeNle][NMeNle][Dab]CG-NH2; thioether N-14) = 4.78 to 72.9 nM
CCCC[C@H]1C(=O)N(C)[C@H](CCC(=O)O)C(=O)N[C@@H](CC(N)=O)C(=O)N[C@@H](C(C)C)C(=O)N(C)[C@@H](Cc2ccccc2)C(=O)N[C@@H](Cc2ccc(O)cc2)C(=O)N2CCCC[C@@H]2C(=O)N[C@@H](Cc2c[nH]c3ccccc23)C(=O)N[C@@H](Cc2ccc(O)cc2)C(=O)N[C@@H](CCCCN)C(=O)N[C@H](C(=O)NCC(N)=O)CSCC(=O)N[C@@H](Cc2ccccc2)C(=O)N(C)[C@@H](Cc2ccccc2)C(=O)N1C [Example 3593] ({CH2CO}-F[NMeF][NMeNle][dNMeE]NV[NMeF]Y[dPip]WYKCG-NH2; thioether N-13) = 0.158 to 4.71 nM
CCCC[C@H]1C(=O)N(C)CC(=O)N[C@@H](CC(=O)O)C(=O)N[C@@H](C(C)C)C(=O)N(C)[C@@H](Cc2ccccc2)C(=O)N[C@@H](Cc2ccc(O)cc2)C(=O)N(C)CC(=O)N[C@@H](Cc2cccc(OC)c2)C(=O)N[C@@H](Cc2ccc(O)cc2)C(=O)N[C@@H](CC(C)C)C(=O)N[C@H](C(=O)NCC(N)=O)CSCC(=O)N[C@@H](Cc2ccccc2)C(=O)N(C)[C@@H](Cc2ccccc2)C(=O)N1C [Example 3548] ({CH2CO}-F[NMeF][NMeNle][Sar]DV[NMeF]Y[Sar][Phe(3-OMe)]YLCG-NH2; thioether N-13) = > 74.3 nM
CCCC[C@H]1C(=O)N(C)[C@@H](CCCC)C(=O)N[C@@H](CO)C(=O)N[C@H](C(=O)NCC(N)=O)CSCC(=O)N[C@@H](Cc2ccc(O)cc2)C(=O)N(C)[C@@H](C)C(=O)N[C@@H](CCN)C(=O)N2CCC[C@H]2C(=O)N[C@@H](Cc2c[nH]cn2)C(=O)N[C@@H](CCC(=O)O)C(=O)N2C[C@H](O)C[C@H]2C(=O)N[C@@H](Cc2c[nH]c3ccccc23)C(=O)N[C@@H](CO)C(=O)N[C@@H](Cc2c[nH]c3ccccc23)C(=O)N1C [Example 5108] ({CH2CO}-Y[NMeA][Dab]PHE[Hyp]WSW[NMeNle][NMeNle]SCG-NH2; thioether N-14) = 4.78 to 72.9 nM
CCCC[C@H]1C(=O)N[C@@H](CCCNC(=N)N)C(=O)NC(C(=O)NCC(N)=O)CSCC(=O)N[C@@H](Cc2ccc(O)cc2)C(=O)N(C)[C@@H](C)C(=O)N[C@@H](CC(N)=O)C(=O)N2CCC[C@H]2C(=O)N[C@@H](CN)C(=O)N[C@@H](CC(C)C)C(=O)N2CCC[C@H]2C(=O)N[C@@H](Cc2c[nH]c3ccccc23)C(=O)N[C@@H](CO)C(=O)N[C@@H](Cc2csc3ccccc23)C(=O)N(C)[C@@H](CCSC)C(=O)N1C (some centres unmarked) [Example 9090] ({CH2CO}-Y[NMeA]NP[Dap]LPWS[Bta][NMeM][NMeNle]R[ξC]G-NH2; thioether N-14) = 0.158 to 4.71 nM

[Q] # query: IC50 of entry CCCC[C@H]1C(=O)N(C)CC(=O)N[C@@H](CC(=O)O)C(=O)N[C@@H](C(C)C)C(=O)N(C)[C@@H](Cc2ccccc2)C(=O)N[C@@H](Cc2ccc(O)cc2)C(=O)N2CCCC[C@@H]2C(=O)N[C@@H](Cc2c[nH]c3ccccc23)C(=O)N[C@@H](Cc2ccc(O)cc2)C(=O)N[C@@H](CC(C)C)C(=O)N[C@H](C(=O)NCC(N)=O)CSCC(=O)N[C@@H](Cc2ccccc2)C(=O)N(C)[C@@H](Cc2ccccc2)C(=O)N1C [Example 3572] ({CH2CO}-F[NMeF][NMeNle][Sar]DV[NMeF]Y[dPip]WYLCG-NH2; thioether N-13)
[A] 0.158 to 4.71 nM

[Q] # query: IC50 of entry CCCC[C@H]1C(=O)N(C)CC(=O)N[C@@H](CC(=O)O)C(=O)N[C@@H](C(C)C)C(=O)N(C)[C@@H](Cc2ccccc2)C(=O)N[C@@H](Cc2ccc(O)cc2)C(=O)N(C)CC(=O)N[C@@H](Cc2c[nH]c3ccccc23)C(=O)N[C@@H](Cc2ccc(O)cc2)C(=O)N[C@@H](CC(C)C)C(=O)N[C@H](C(=O)NCC(N)=O)CSCC(=O)N[C@@H](Cc2ccccc2)C(=O)N[C@@H](Cc2cccc3ccccc23)C(=O)N1C [Example 3569] ({CH2CO}-F[1Nal][NMeNle][Sar]DV[NMeF]Y[Sar]WYLCG-NH2; thioether N-13)
[A] > 74.3 nM

[Q] # query: IC50 of entry CCCC[C@H]1C(=O)N(C)CC(=O)N[C@@H](CC(N)=O)C(=O)N[C@@H](C(C)C)C(=O)N(C)[C@@H](Cc2ccccc2)C(=O)N[C@@H](Cc2ccc(O)cc2)C(=O)N(C)CC(=O)N[C@@H](Cc2c[nH]c3ccccc23)C(=O)N[C@@H](Cc2ccc(O)cc2)C(=O)N[C@@H](CCCN)C(=O)N[C@H](C(=O)NCC(N)=O)CSCC(=O)N[C@@H](Cc2ccccc2)C(=O)N[C@@H](Cc2ccncc2)C(=O)N1C [Example 3610] ({CH2CO}-F[4Pal][NMeNle][Sar]NV[NMeF]Y[Sar]WY[Orn]CG-NH2; thioether N-13)
[A] 4.78 to 72.9 nM
